# Kd annotations
Molecular target: norovirus GII.17 Saitama strain virus-like particle (VLP) (norovirus GII.17 Saitama strain)
Test: BLI (BLItz), biotinylated peptide on SA chip, VLP in solution
Where no end group is shown, it is not given here.
Respond numerically; units are µM and should not be typed.

// worked examples, Kd included
{"binder": "VCVDNDISMS (also: biotinylated, residue not given here, spacer sequence added, letters and position not given here) [norovirus-binding peptide of SEQ ID NO: 150]", "Kd (µM)": 2510}
{"binder": "ICSSWFPSVH (also: biotinylated, residue not given here, spacer sequence added, letters and position not given here) [norovirus-binding peptide of SEQ ID NO: 48]", "Kd (µM)": 0.0766}

Shift focus to the following entry.
What measured Kd goes with SVMVTRSLFG (also: biotinylated, residue not given here, spacer sequence added, letters and position not given here) [norovirus-binding peptide of SEQ ID NO: 163] ?
0.168
